Overview of recorded pIC50 for various compounds
EXPERIMENTAL SYSTEM: USP5 (Homo sapiens)
Sequence (P45974 2-858, other chains not shown): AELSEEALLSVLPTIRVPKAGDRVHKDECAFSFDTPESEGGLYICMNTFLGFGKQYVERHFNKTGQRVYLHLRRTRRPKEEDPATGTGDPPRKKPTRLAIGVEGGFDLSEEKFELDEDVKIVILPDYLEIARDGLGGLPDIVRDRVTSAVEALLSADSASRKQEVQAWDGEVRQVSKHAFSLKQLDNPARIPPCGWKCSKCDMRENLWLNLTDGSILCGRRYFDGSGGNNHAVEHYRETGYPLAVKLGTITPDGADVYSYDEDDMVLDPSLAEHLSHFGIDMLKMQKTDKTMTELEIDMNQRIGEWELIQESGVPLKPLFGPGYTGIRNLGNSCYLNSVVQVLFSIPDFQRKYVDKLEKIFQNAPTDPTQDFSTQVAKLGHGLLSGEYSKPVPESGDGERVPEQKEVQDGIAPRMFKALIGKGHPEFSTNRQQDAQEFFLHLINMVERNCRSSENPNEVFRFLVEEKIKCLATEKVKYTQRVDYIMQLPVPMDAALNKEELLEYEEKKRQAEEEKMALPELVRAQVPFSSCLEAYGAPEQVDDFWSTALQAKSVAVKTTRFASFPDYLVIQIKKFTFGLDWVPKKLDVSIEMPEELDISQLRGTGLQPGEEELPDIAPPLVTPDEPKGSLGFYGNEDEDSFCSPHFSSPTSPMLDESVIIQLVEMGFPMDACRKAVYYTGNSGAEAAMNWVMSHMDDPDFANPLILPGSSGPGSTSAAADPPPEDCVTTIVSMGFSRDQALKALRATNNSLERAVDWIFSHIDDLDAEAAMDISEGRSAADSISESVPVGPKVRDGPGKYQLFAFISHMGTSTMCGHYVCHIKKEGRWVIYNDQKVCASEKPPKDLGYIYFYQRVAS
ASSAY EXPLANATION: Deubiquitination assay, cleavage of GST-Ubiquitin-HA by USP5 (SDS-PAGE band intensity)
Format: biochemical
EXPERIMENTAL PARAMETERS: 0.6 µM USP5, 5 µM GST-Ubiquitin-HA, 0–45 µM compound; read-out: IC50 USP5 (DUB activity)
pIC50: −log10 of the molar value.

COMPOUND: Cc1cc(-c2ccc(/N=N/c3ccc4c(S(=O)(=O)O)cc(S(=O)(=O)O)c(N)c4c3O)c(C)c2)ccc1/N=N/c1ccc2c(S(=O)(=O)O)cc(S(=O)(=O)O)c(N)c2c1O [EB, Evans blue]
RESULT COMPARATOR: =
pIC50: 5.03
//
COMPOUND: Cc1cc(-c2ccc(/N=N/c3c(S(=O)(=O)O)cc4cc(S(=O)(=O)O)cc(N)c4c3O)c(C)c2)ccc1/N=N/c1c(S(=O)(=O)O)cc2cc(S(=O)(=O)O)cc(N)c2c1O [TB, Trypan blue]
RESULT COMPARATOR: <
pIC50: 4.35
//
COMPOUND: COc1cc(-c2ccc(/N=N/c3c(S(=O)(=O)O)cc4cc(S(=O)(=O)O)cc(N)c4c3O)c(OC)c2)ccc1/N=N/c1c(S(=O)(=O)O)cc2cc(S(=O)(=O)O)cc(N)c2c1O [DB15, Direct blue 15]
RESULT COMPARATOR: =
pIC50: 4.49
//
COMPOUND: Nc1ccc2c(O)c(N=Nc3ccc(N=Nc4ccc(N=Nc5cc(S(=O)(=O)O)c6cccc(S(=O)(=O)O)c6c5)c5ccccc45)c4ccc(S(=O)(=O)O)cc34)c(S(=O)(=O)O)cc2c1 [DB71, Direct blue 71]
RESULT COMPARATOR: =
pIC50: 4.86
